- Experimental System: human SERT (Homo sapiens, UniProt P31645)
- Sequence (P31645 whole entry): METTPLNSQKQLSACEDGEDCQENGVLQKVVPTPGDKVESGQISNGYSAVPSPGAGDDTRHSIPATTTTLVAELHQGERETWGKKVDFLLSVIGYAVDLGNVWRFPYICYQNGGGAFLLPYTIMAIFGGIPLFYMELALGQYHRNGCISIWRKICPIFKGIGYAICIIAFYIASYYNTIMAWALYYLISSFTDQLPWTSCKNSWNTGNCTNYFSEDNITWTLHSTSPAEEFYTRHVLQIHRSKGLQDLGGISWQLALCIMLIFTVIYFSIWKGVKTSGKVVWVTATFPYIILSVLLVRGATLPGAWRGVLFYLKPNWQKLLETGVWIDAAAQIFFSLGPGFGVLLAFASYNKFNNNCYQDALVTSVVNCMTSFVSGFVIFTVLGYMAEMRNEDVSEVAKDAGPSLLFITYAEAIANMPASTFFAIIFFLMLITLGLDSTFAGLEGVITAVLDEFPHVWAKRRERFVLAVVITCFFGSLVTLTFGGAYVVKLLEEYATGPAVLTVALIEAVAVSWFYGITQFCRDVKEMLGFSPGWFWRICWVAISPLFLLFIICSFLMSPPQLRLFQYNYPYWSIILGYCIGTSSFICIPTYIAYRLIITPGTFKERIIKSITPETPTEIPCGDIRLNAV
- Experimental Details: Inhibitory activity assay against 5-HT transporter (neurotransmitter transporter uptake assay kit)
- Condition Parameters: HEK-293 cells overexpressing human SERT; read-out: 5-HTT (IC50)
Assay Readout: log10 IC50 (log10 of the value in nM)
Scale: decimal log of IC50, IC50 in nM.

[
  {
    "Molecule": "CCOc1cccc([C@@]2(N)CCc3nc(N)sc3C2)c1 [R-A228]",
    "log10 IC50": 3.46
  },
  {
    "Molecule": "NC1(c2ccccc2)CCc2[nH]ncc2C1 (racemic) [rac-A65]",
    "log10 IC50": 3.28
  },
  {
    "Molecule": "CNC1(c2cccc(OC)c2)CCc2nc(N)sc2C1 (racemic) [rac-A88]",
    "log10 IC50": 2.95
  }
]

Query block: Recall and state the measured log10 IC50 for Nc1nc2c(s1)CC(N)(c1cccnc1)CC2 (racemic) [rac-A98] .
Result block: 4.20

Query block: Recall and state the measured log10 IC50 for CCNC1(c2cccc(OC)c2)CCc2nc(N)sc2C1 (racemic) [rac-A226] .
Result block: 3.30

---

Parameter pIC50: see the listing below.
- Experimental System: human SERT (Homo sapiens, UniProt P31645)
- Experimental Details: Inhibitory activity assay against 5-HT transporter (neurotransmitter transporter uptake assay kit)
- Format: cell-based
- Condition Parameters: HEK-293 cells overexpressing human SERT; read-out: 5-HTT (IC50)
Where a name gives a salt, the structure may show the parent alone.
Lab note: report pIC50 as minus log10 of the concentration in molar units, number only.

[
  {
    "Compound": "CNC1(c2ccc(F)cc2F)CCc2nc(N)sc2C1 (racemic) [rac-A236]",
    "pIC50": 5.55
  }
]

Query block: Given CCNc1nc2c(s1)CC(N)(c1cccc(OC)c1)CC2 (racemic) [rac-A301, hydrochloride] , report its pIC50 on human SERT (Homo sapiens, UniProt P31645).
Result block: 5.40

Query block: Given COc1cccc(C2(N)CCc3nc(O)sc3C2)c1 (racemic) [rac-A262] , report its pIC50 on human SERT (Homo sapiens, UniProt P31645).
Result block: 6.85

Query block: Given Nc1nc2c(s1)CC(N)(c1cccc(F)c1)CC2 (racemic) [rac-A10] , report its pIC50 on human SERT (Homo sapiens, UniProt P31645).
Result block: 5.89

Query block: Given NC1(c2ccc(F)cc2)CCCc2cn[nH]c21 (racemic) [rac-A222] , report its pIC50 on human SERT (Homo sapiens, UniProt P31645).
Result block: 5.00

Query block: Given COc1cccc(C2(N)CCc3nc(NC(C)=O)sc3C2)c1 (racemic) [rac-A300] , report its pIC50 on human SERT (Homo sapiens, UniProt P31645).
Result block: 5.68

---

- Experimental System: human SERT (Homo sapiens)
- Experimental Details: Inhibitory activity assay against 5-HT transporter (neurotransmitter transporter uptake assay kit)
- Condition Parameters: HEK-293 cells overexpressing human SERT; read-out: 5-HTT (IC50)
Structures can show the parent of a compound that is named as a salt.
Parameter pIC50: see the listing below.
Lab note: report pIC50 as minus log10 of the concentration in molar units, number only.

Consider the following illustrative entries.
[
  {
    "Compound": "COc1nc2c(s1)CC(N)(c1ccccc1)CC2 (racemic) [rac-A225]",
    "Assay Readout": "pIC50",
    "Reported": 6.00
  },
  {
    "Compound": "NC1(c2ccccc2)CCc2nc(C(F)(F)F)sc2C1 (racemic) [rac-A131, hydrochloride]",
    "Assay Readout": "pIC50",
    "Reported": 5.44
  },
  {
    "Compound": "NC1(c2ccc3ccccc3c2)CCc2sccc2C1 (racemic) [rac-A247]",
    "Assay Readout": "pIC50",
    "Reported": 5.35
  },
  {
    "Compound": "NC1(c2ccccc2)CCc2nnsc2C1 (racemic) [rac-A244, hydrochloride]",
    "Assay Readout": "pIC50",
    "Reported": 5.82
  },
  {
    "Compound": "CNC1(c2ccc(OC)c(OC)c2)CCc2nc(N)sc2C1 (racemic) [rac-A254]",
    "Assay Readout": "pIC50",
    "Reported": 5.70
  }
]

Query block: Recall and state the measured pIC50 for CN(Cc1ccccc1)C1(c2ccccc2)CCc2[nH]ncc2C1 (racemic) [rac-A68] .
Result block: 6.15

Query block: Recall and state the measured pIC50 for COc1ccc(C2(N)CCc3nc(N)sc3C2)cc1 (racemic) [rac-A89] .
Result block: 5.12

Query block: Recall and state the measured pIC50 for Nc1nc2c(s1)CC(c1cccc(Cl)c1)(N1CCCC1)CC2 (racemic) [rac-A51] .
Result block: 5.92

Query block: Recall and state the measured pIC50 for CSc1cccc(C2(N)CCc3nc(N)sc3C2)c1 (racemic) [rac-A304] .
Result block: 5.43

Query block: Recall and state the measured pIC50 for Nc1nc2c(s1)CC(N)(c1ccccc1F)CC2 (racemic) [rac-A9] .
Result block: 6.10

Query block: Recall and state the measured pIC50 for N[C@]1(c2ccccc2)CCc2ccsc2C1 [R-A19] .
Result block: 5.92

Query block: Recall and state the measured pIC50 for COc1cccc(C2(N)CCc3nc(C(C)=O)sc3C2)c1 (racemic) [rac-A314, hydrochloride] .
Result block: 5.25

---

- Experimental Details: In vivo metabolism (pharmacokinetic) experiment in mice
- Set-up: species or system male ICR mice
- Condition Parameters: mouse, male ICR mice, oral 10 mg/kg, plasma, read-out: AUC0-inf(po)
Parameter AUC(0-inf): see the listing below.
The answer is to be given in ng·h/mL; state only the numeric part.

[
  {
    "Molecule": "NC1(c2ccccc2)CCc2ccsc2C1 (racemic)",
    "AUC(0-inf) (ng·h/mL)": 797
  },
  {
    "Molecule": "Nc1nc2c(s1)CC(c1ccccc1)(N1CCCC1)CC2 (racemic)",
    "AUC(0-inf) (ng·h/mL)": 321
  },
  {
    "Molecule": "CNC1(c2ccccc2)CCc2ncsc2C1 (racemic)",
    "AUC(0-inf) (ng·h/mL)": 845
  },
  {
    "Molecule": "CNC1(c2ccccc2)CCc2[nH]ncc2C1 (racemic)",
    "AUC(0-inf) (ng·h/mL)": 602
  }
]

Now turn to the next molecule.
Query block: Recall and state the measured AUC(0-inf) for NC1(c2ccccc2)CCCc2sccc21 (racemic) .
Result block: 501

---

- Experimental System: Sigma2 receptor (Homo sapiens)
- Sequence (Q5BJF2 whole entry, species assumed): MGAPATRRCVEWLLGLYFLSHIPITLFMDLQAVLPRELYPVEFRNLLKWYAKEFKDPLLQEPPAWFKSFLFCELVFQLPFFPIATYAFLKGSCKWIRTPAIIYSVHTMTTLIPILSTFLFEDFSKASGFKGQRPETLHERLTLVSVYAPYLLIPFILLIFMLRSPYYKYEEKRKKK
- Experimental Details: Sigma receptor affinity assay ([3H]-DTG binding), Sigma2R
- Condition Parameters: HEK293 membranes stably expressing Sigma2 receptor, [3H]-DTG 5 nM; read-out: Sigma2R (Ki)
Assay Readout: pKi
Lab note: report pKi as minus log10 of the concentration in molar units, number only.

Consider the following illustrative entries.
[
  {
    "Compound": "CN[C@]1(c2ccccc2)CCc2ncsc2C1",
    "Experimental System": "Sigma2 receptor (Homo sapiens)",
    "pKi": 6.54
  },
  {
    "Compound": "CN[C@]1(c2ccccc2)CCc2nc(N)sc2C1",
    "Experimental System": "Sigma2 receptor (Homo sapiens)",
    "pKi": 5.75
  },
  {
    "Compound": "N[C@@]1(c2ccccc2)CCc2ccsc2C1",
    "Experimental System": "Sigma2 receptor (Homo sapiens)",
    "pKi": 5.95
  },
  {
    "Compound": "CNC1(c2ccccc2)CCc2nc(N)sc2C1 (racemic)",
    "Experimental System": "Sigma2 receptor (Homo sapiens)",
    "pKi": 6.91
  },
  {
    "Compound": "N[C@]1(c2ccccc2)CCc2ccsc2C1",
    "Experimental System": "Sigma2 receptor (Homo sapiens)",
    "pKi": 5.90
  }
]

Query block: Recall and state the measured pKi for CN[C@@]1(c2ccccc2)CCc2nc(N)sc2C1 .
Result block: 6.00

Query block: Recall and state the measured pKi for CN[C@@]1(c2ccccc2)CCc2ncsc2C1 .
Result block: 6.59

---

Parameter IC50: see the listing below.
- Experimental System: human SERT (Homo sapiens, UniProt P31645)
- Experimental Details: Inhibitory activity assay against 5-HT transporter (neurotransmitter transporter uptake assay kit)
- Type: cell-based
- Condition Parameters: HEK-293 cells overexpressing human SERT; read-out: 5-HTT (IC50)
Structures can show the parent of a compound that is named as a salt.

Query block: Recall and state the measured IC50 for NC1(c2ccccc2)CCc2scnc2C1 (racemic) .
Result block: 17000 nM

Query block: Recall and state the measured IC50 for CCOc1cccc(C2(N)CCc3nc(O)sc3C2)c1 (racemic) [rac-A295, hydrochloride] .
Result block: 110 nM

Query block: Recall and state the measured IC50 for CNC1(c2ccccc2)CCc2nc(O)sc2C1 (racemic) .
Result block: 28 nM

Query block: Recall and state the measured IC50 for CNC1(c2ccccc2F)CCc2nc(N)sc2C1 (racemic) .
Result block: 94 nM

Query block: Recall and state the measured IC50 for Nc1nc2c(s1)CC(N)(c1ccc3ccccc3c1)CC2 (racemic) .
Result block: 2000 nM
